// data source = patent US20220106328A1

IC50 tested on MAGL (Homo sapiens, UniProt Q99685): recorded values
Sequence (Q99685 whole entry, species assumed): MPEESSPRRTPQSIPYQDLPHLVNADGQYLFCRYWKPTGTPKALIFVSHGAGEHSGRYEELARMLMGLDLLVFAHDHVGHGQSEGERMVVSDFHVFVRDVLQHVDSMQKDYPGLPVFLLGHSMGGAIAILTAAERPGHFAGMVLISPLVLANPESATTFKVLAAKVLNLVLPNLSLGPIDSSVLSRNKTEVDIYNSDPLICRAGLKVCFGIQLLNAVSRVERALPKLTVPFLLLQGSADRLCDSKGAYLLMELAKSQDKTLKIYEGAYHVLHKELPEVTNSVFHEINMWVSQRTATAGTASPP

compound | targetOrTestSystem | IC50, nM
O=C1CO[C@H]2CCN(C(=O)N3CC(OCc4ccc(OC(F)(F)F)cc4)C3)C[C@@H]2N1 (single isomer, unassigned) | MAGL (Homo sapiens, UniProt Q99685) | 411
O=C(N1CC(OCc2ccc(C(F)(F)F)cc2F)C1)N1CC[C@H]2OCCN[C@@H]2C1 (racemic) | MAGL (Homo sapiens, UniProt Q99685) | 2010
O=C1CO[C@H]2CCN(C(=O)N3CC(c4ccc(Oc5ccccc5Cl)nc4)C3)C[C@@H]2N1 (single isomer, unassigned) | MAGL (Homo sapiens, UniProt Q99685) | 32
O=C1CO[C@@H]2CCN(C(=O)N3CCC4(CC3)CC(Oc3ccc(C(F)(F)F)cc3F)C4)C[C@H]2N1 (single isomer, unassigned) | MAGL (Homo sapiens, UniProt Q99685) | 118
